Exercise: state measured Signal/background for each of the binders provided.
Tested on: T1, DPYSL4 peptide complexed with HLA-A*02:01 on T2 cells (human)
T1 construct: whole, on cells
Protocol notes: flow cytometry, peptide-loaded T2 cells;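 note: binding of single-chain Fv antibody constructs, raised in XenoMouse, to peptide-pulsed T2 cells measured by flow cytometry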
Just the number, please, no unit after it.

The recorded Signal/background for 18182-G8 (scFv, scFv in bacterial lysate, detected with anti-Flag M2) scFv: EVQLLESGGGLVKPGGSLRLSCAASGFTFSSYAMNWVRQAPGKGLEWVSAISGSGGGTYYADSGKGRFTISRDNSKNTLYLQMNSLRAEDTAVYYCATGKGVHLNFDYWGQGTLVTVSSGGGGSGGGGSGGGGSELVLTQPPSVSVAPGQTARITCGGNNIGSKSVHWYQQKPGQAPVMVVYDDNDRPSGIPERFSGSNSGNTATLTISRVEAGDEADYYCQVWDSSSDHVVFGGGTKLTVL is 1

The recorded Signal/background for 18081-E7 (scFv, scFv in bacterial lysate, detected with anti-Flag M2) scFv: EVQLLESGPGLVKPSETLSLTCTVSGDSISSSRYYWGWIRQPPGKGLEWIGSIYYSGSTYYNPSLKSRVTISVDTSKNQFSLKLSSVTAADTAVYYCARGIFGVITYFDYWGQGTLVTVSSGGGGSGGGGSGGGGSELVMTQTPDSLAVSLGERATINCKSSQSVLYSSNNKNYLAWYQQKPGQPPKLLIYWASTRESGVPDRFSGSGSGTDFTLTISSLQAEDVAVYYCQQYYSTPLTFGGGTKVEIK is 1.2
